target: T1, Human CD33 (human, UniProt P20138 18-364); experiment: Scatchard analysis, [125I]-labeled antibody competed by unlabeled antibody, Molm-13 cells (endogenous CD33)
T1 construct: One molecule is used for recombinant CD33 on HEK293AD/293 cells and for endogenous human CD33 on tumor or myeloid cells; the cell is named under assay; also called huCD33; hu CD33
measuredProperty: pKd
A value of pKd is the negative decimal logarithm of a concentration given in moles per litre.

Use these answered entries as a reference point.
Given 15G15.88 (antibody, V domains shown, Variant of 15G15) VH: QVQLVQSGAEVKKPGSSVKVSCKASGGIFSNHAISWVRQAPGQGLEWMGGIIPIFGTANYAQKFQGRVTITADESTSTAFMELSSLRSEDTAVYYCAREWADVFDIWGQGTMVTVSS VL: EIVLTQSPLSLPVTPGEPASISCRSSQSLLHSNGYNYLDWYLQKPGQSPQLLIYLGNYRVSGVPDRFSGSGSGTDFTLKISRVEAEDVGVYYCMQALQTPWTFGQGTKVEIK , state its recorded pKd.
9.10

Could you share which pKd value was measured for 15G15.33 (antibody, V domains shown, Variant of 15G15) VH: QVQLVQSGAEVKKPGSSVKVSCKASGGIFSNHAISWVRQAPGQGLEWMGGIIPIFGTANYAQKFQGRVTITADESTSTAFMELSSLRSEDTAVYYCAREWADVFDIWGQGTMVTVSS VL: EIVLTQSPLSLPVTPGEPASISCRSSQSLLHSNGYNYLDWYLQKPGQSPQLLIYLGVNSVSGVPDRFSGSGSGTDFTLKISRVEAEDVGVYYCMQALQTPWTFGQGTKVEIK ?
9.05

Which pKd value is on record for 9C3.4 (antibody, V domains shown, Variant of 9C3 with the heavy chain N-glycosylation site removed) VH: EVQLVESGGALIQPGGSLRLSCVASGFTISGNYMSWVRQAPGKGLEWVSLIYSGDSTYYADSVKGRFAISRDISKNTVYLQMNSLRVEDTAVYYCVRDGYYVSDMVVWGKGTTVTVSS VL: DIQMTQSPSSLSASVGDRVTITCRASQGIRNDLGWYQQKPGKAPKRLIYAASSLQSGVPSRFSGSGSGTEFTLTISSLQPEDFATYYCLQHNSYPWTFGQGTKLEIK ?
8.57

Any idea what its pKd is? The binder is 27C6 (antibody, V domains shown) VH: EVQLQQSGPELVKPGASVKVSCKASGYAFTSYNMYWVKQSHGKSLEWIGYIDPYNGGTRHNQKFKDKATLTVDKSSSTAYMHLNSLTSEDSAVYYCASQNYEYFDYWGQGTTLTVSS VL: DIVLTQSPKFMSTSVGDRVSITCKASQDVGDAVAWYQQKPGQSPKLLFYWTSTRHTGVPDRFTGSGSGTEFTLTIRNVQSEDLADYFCQQYRSTPLTFGSGTKVEIK
7.64

---
Endpoint output: pKd of 33H4 (antibody, V domains shown) VH: EVQLQQSGAELVKPGASVKMSCKAFGYTFTTFPIEWMKQSHGKSLEWIGNFHPYNDQTKYNEEFKGRAKLTIDRSSSTVYLELGRLTSDDSAVYYCARGYYYAFDFWGQGTTLTVSS VL: DIQMTQSPASLTVSLGQRATISCRASESVDSYGNSYLHWYQQKPGQPPQLLIYLASNLESGVPARFSGSGSRTDFTLTIDPVEADDAATYYCQQNNEDPWTFGGGTKVEIK . Value?
9.22
